Test: soluble on expression in E. coli; label from the status in PepcDB or PDB records
recorded_endpoint: soluble on expression in E. coli

Worked cases, soluble on expression in E. coli given:
MGGSHHHHHHGMASGSPPTQPSPASDSGSGYVPGSVSAAFVTCPNEKVAKEIARAVVEKRLAACVNLIPQITSIYEWKGKIEEDSEVLMMIKTQSSLVPALTDFVRSVHPYEVAEVIALPVEQGNFPYLQWVRQVTESVSDSITVLP soluble
MRGSHHHHHHGMASMAVSESQLKKMVSKYKYRDLTVRETVNVITLYKDLKPVLDSYVFNDGSSRELMNLTGTIPVPYRGNTYNIPICLWLLDTYPYNPPICFVKPTSSMTIKTGKHVDANGKIYLPYLHEWKHPQSDLLGLIQVMIVVFGDEPPVFSRP soluble
PNISDIIEQYLKQVLNMSDQDIVEIKRSEIANKFRCVPSQINYVINTRFTLERGYIVESKRGGGGYIRIMKVKTKSEAQLIDQLLELIDHRISQSSAEDVIKRLMEEKVISEREAKMMLSVMDRSVLYIDLPERDELRARMLKAMLTSLKYKLEI soluble
MNTLLSLMNSIEQEARTIYDSYDAKKKALADKKEEELKQLFLEYEQETQLLLEAKREVFFEANRQEQKASKKRLATQQLALHAILEEHKLTVVRELVDKVVETYGH not soluble

Below: the item to evaluate.
Data request: Provide soluble on expression in E. coli value for the following sequence: "MSKSALHAFIDRARADEDFRSKLAHLDPNQIIEFAGQHGFLFSDEIKGRFINRWSGVYFCPQAIEVGQLCPALVPDGYKNLIHYAQSTCSSSNLSEEERDFRSGIKY"
Data returned: not soluble

###

Test: soluble on expression in E. coli; label from the status in PepcDB or PDB records
recorded_endpoint: soluble on expression in E. coli

Example entries and their recorded answers appear below.
GHHHHHHHHHHGLVPRGSHMYFQKARLIHAELPLLAPFKTSYGELKSKDFYIIELINEEGIHGYGELEAFPLPDYTEETLSSAILIIKEQLLPLLAQRKIRKPEEIQELFSWIQGNEMAKAAVELAVWDAFAKMEKRSLAKMIGATKESIKVGVSIGLQQNVETLLQLVNQYVDQGYERVKLKIAPNKDIQFVEAVRKSFPKLSLMADANSAYNREDFLLLKELDQYDLEMIEQPFGTKDFVDHAWLQKQLKTRICLDENIRSVKDVEQAHSIGSCRAINLKLARVGGMSSALKIAEYCALNEILVWCGGMLEAGVGRAHNIALAARNEFVFPGDISASNRFFAEDIVTPAFELNQGRLKVPTNEGIGVTLDLKVLKKYTKSTEEILLNKGWS soluble
MGSDKIHHHHHHMDAKTIDNRIRRAFNGIRQAFRGKIARVKAAGGVQQIQVEGLEGETVQDLEHAENFGFTSNPPAGSDCVVVPLGGKTSHGIIVTTTNGAYRITGLAEGETAVYNADGAKMVLKKGRIIEIDCETLNIKAPGGVNIDAPNVGCTAQITAEGQINGNGGMAVKGGSGTSFTGNVQMVGDLDTTGKLTNNGKNVGSDHKHNGDSGGTTSDPL not soluble
FSSALTSKDAARLADETDNIAEALRAAETEGVALQDMLQAYLPANGMVRVVNGDQKAVMTITKEKAYKDFPLSFHSGETADVRKPDGKLFAEAAVPVIWTDGQVVSLQLVERLENTEESLFLLK not soluble
NIEQGLYAMLGVYVSSKTIDVVQVGFNRSKMALIITKQEQAVKEAVLQKIDRGVTKISAVGGYTDDDRPILMCVVGQTEFTKLKQIVKQIDESAFVIVADASEVLGEGFKRA not soluble
MPSSSNSAAFSLDEFAKALDKHDYHAEKGQTVHGKICQHANEGVYVDFGGKSPGFVPVQELGLRPHAEIEDSFPLDSAWDFLVTSEQNDEGQVRLSRRQLQIQQSWENLAELEESGKTLEMVVTGTNKGGVVGDVEGLRGFIPRSHLMHKDNMDALVGQVLKAHILEANQDNNKLVLTQRRIQQAESMGKIAAGNIYEGKVAKIQPYGVFVEIEGVTGLLHVSQVSGTRVDSLNTLFAFGQAISVYVQEIDEYKNRISLSTRILETYPGELVEKFDEMMADAPNRLPLVQSKQNLGDKQEQLEKSLEHHHHHH not soluble

Data request: State its soluble on expression in E. coli for this sequence: "MMCTKEFDYLNEANQATRFQNVWLPGRYTDCNHMKRKQEEVNGEENSTWRSSSSFQ"
Data returned: not soluble

Data request: Look up and state reported soluble on expression in E. coli for "MSLRTLAVETSCDETALAIYDDQKGVLGNVILSQAVVHSPFGGVVPELSAREHTRNILPIFDRLLKESRINLEEIDFISFTLTPGLILSLVVGVAFAKALAYEYRKPLVPVHHLEGHIYSVFLEKKVEYPFLALIISGGHTDLYLVRDFGRYDFLGGTLDDAVGEAYDKVAKMLGLGYPGGPIIDRLAKEGKKLYPLPKPLMEEGNLNFSFSGLKTAILNLLKKEKNVRKEDIAYSFQETVVEILLEKSLWAMKKTGIKRLVVVGGVSANSRLREVFKKASQEYGFELYIPHPSLSTDNALMIAYAGMERFKRGVVAPLDVNPQPNIPLEEFGRIWTEGHHHHHH"
Data returned: soluble

Data request: Provide measured soluble on expression in E. coli value, entry: "MVEERIINLSHEIKNFVYPNDPEFIVKTKKNGKYSVSELNMGVHTGTHIDYPMHVGLTNEKFENVFGKGYCVSLENMNDFFKNAPKNLEILLIKTDFSKYWEDPEYFEKECDIENHVEKLISMNLKAVGIDCCSIGNFSVHEKLLSSKIKIIENMKNLEILENKTFKFFGFPLNIEKIDGSPINAVAFLLEHHHHHH"
Data returned: not soluble

Data request: Fill in reported soluble on expression in E. coli for this entry: "MTNPMQATRKIISITDQNVVHREDQVAREYPLTIYVNDREFATMVCTQADLEEMVIGFLGSEGLIRFYKQDVASLSIDESRGFAYVSLTKELPTEWQFYSKRMIGSCCGKSRQSFYFHNDAKTAKTSMSRTTMTPEQCFRLMEALQEQSVIFQQTGGVHNAALATPEQMLISRTDIGRHNALDKLYGYCLMNGVPVRDKVLLFSGRISSEVLLKAAKIGVGIMLSKSAPTELALTMAEELNITTAGFIRDGRMNIYTVPERILTPKKEVQLEHHHHHH"
Data returned: soluble

Data request: Supply recorded soluble on expression in E. coli for "MGSDKIHHHHHHMSKPDRVVLIGVAGDSGCGKSTFLNRLADLFGTELMTVICLDDYHSLDRKGRKEAGVTALDPRANNFDLMYEQVKALKNGETIMKPIYNHETGLIDPPEKIEPNRIIVIEGLHPLYDERVRELLDFSVYLDIDDEVKIAWKIQRDMAERGHSYEDVLASIEARRPDFKAYIEPQRGHADIVIRVMPTQLIPNDTERKVLRVQLIQREGRDGFEPAYLFDEGSTIQWTPCGRKLTCSYPGIRLAYGPDTYYGHEVSVLEVDGQFENLEEMIYVEGHLSKTDTQYYGELTHLLLQHKDYPGSNNGTGLFQVLTGLKMRAAYERLTSQAAPVAASV" here.
Data returned: not soluble

Data request: Output measured soluble on expression in E. coli for this item: "MAHHHHHHMEENNQVEKNKTNQLCFVKMLVNNLVAGSVIGKNGSIITSIENKTGCSLKLSPTNSYFPNTQERVLVLCGKQEQINNALLIILDKIRQITVQSFQDKQNMNTVPKYTCRIVIPKSAASAIIGKGGQQIKQLQDSTGAKIQISSREDGLNERIISIIGPFESISDTAIKVTNSIQNDPNLKDLLNVIYNKDTNMNGRSSLSQNFVNQVPLNGYVVPQQYGVFQHEQYMDVNMMNSLMRHSRDLFNLPCEISIQI"
Data returned: not soluble

Data request: Hello, please tell me recorded soluble on expression in E. coli for this one: "MSTDVAAAQAQSKIDLTKKKNEEINKKSLEEDDEFEDFPIDTWANGETIKSNAVTQTNIWEENWDDVEVDDDFTNELKAELDRYKRENQ"
Data returned: soluble
